viability for assorted compounds
assay: reversal of MRP1-mediated doxorubicin resistance, pilot screen, H69AR cells, doxorubicin co-treatment (AID 601); conditions: H69AR cells + 2 uM doxorubicin, CellTiter-Glo, 72 h; measured here: viability with 2 uM doxorubicin; at 10 µM; stronger effect = lower value
Answer format: numeric, % implied, no suffix.

Cn1c(Cc2csc(N)n2)nnc1SCC(=O)NCc1ccccc1 : 111
CCOC(=O)N1CCN(C(=O)CSc2nnc(Cc3ccccc3)o2)CC1 : 77.2
CCOC(=O)C1CCCN(C(=O)c2cc3c(C)nc4ccccc4c3o2)C1 (stereo unspecified) : 36.2
O=C(CSCCSCC(=O)c1ccco1)c1ccco1 : 90
S=c1[nH]nc(Cc2ccccc2)n1-c1ccccc1 : 86.7

Then this compound:
Summary for this compound, Nc1nonc1NC(=O)CSc1nc2ccccc2s1 : viability is 86.7

====

test: SK-BR-3 cell growth inhibitors, pilot screen, 24 h, human (AID 572); conditions: SK-BR-3 viability, CellTiter-Glo luminescence, at 10 µM, stronger effect = lower value;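 note: compound exposure lasted between 18 and 24 h rather than exactly 24 h; 100% = carrier-treated control wells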
Param label: returns rule met when viability < 90%, returns rule not met otherwise, including exact equality.

CCCCn1c(NCCC)nc2c1c(=O)[nH]c(=O)n2C : rule not met
O=C(O)CCCNS(=O)(=O)c1ccc(NCc2ccccc2)c(C(=O)O)c1 : rule met
CCn1nccc1C(=O)Nc1cc(Cl)ccc1Cl : rule not met
O=C1CN(Cc2ccccc2)C(=NCc2ccco2)S1 : rule not met
Cn1c(=O)[nH]c(=O)c2[nH]c(NCCCN3CCOCC3)nc21 : rule not met
Cc1cc(C)cc(NC(=O)C2CCCN(c3nccc(C)n3)C2)c1 (centres undefined) : rule met
CCc1ccccc1-n1c(SCC(=O)N2CCCC2)nnc1-c1ccccn1 : rule not met
Cc1ccc(NC(=O)C2CCCN(S(=O)(=O)c3cnc[nH]3)C2)cc1C (centres undefined) : rule not met

IN: For this compound, is viability lower than 90%? CCOC(=O)C1CCCN(C(=O)c2cc3c(C)nc4ccccc4c3o2)C1 (centres undefined)
OUT: rule met

IN: For this compound, is viability lower than 90%? CC(C)(C)NC(=O)Cn1nnc(-c2cccs2)n1
OUT: rule not met

IN: For this compound, is viability lower than 90%? COC(=O)c1cn(C(=O)OC)c2ccccc12
OUT: rule not met

IN: For this compound, is viability lower than 90%? COC(=O)c1ccccc1NC(=O)c1ccc(COc2ccccc2)o1
OUT: rule met

IN: For this compound, is viability lower than 90%? COc1ccc(C2CC(c3ccccc3)Nc3nc(NC(=O)c4cccs4)nn32)cc1 (centres undefined)
OUT: rule met

IN: For this compound, is viability lower than 90%? CN1CCN(S(=O)(=O)c2ccc(Sc3nnc(-c4cccs4)n3-c3ccccc3)nc2)CC1
OUT: rule not met

====

assay: SK-BR-3 cell growth inhibitors, pilot screen, 24 h, human (AID 572); conditions: SK-BR-3 viability, CellTiter-Glo luminescence, at 10 µM, stronger effect = lower value;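 note: compound exposure lasted between 18 and 24 h rather than exactly 24 h; 100% = carrier-treated control wells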
Readout Label: viability (%)
Answer format: numeric, % implied, no suffix.

Examples from the recorded data:
O=C(CP(=O)(CO)CO)c1ccc(Cl)cc1 : 100
CCn1c(=O)cc(SCC(=O)NCC2CCCO2)c2ccccc21 (stereo not drawn) : 89
O=C(O)C1C2CCC(O2)C1C(=O)NCCC1=CCCCC1 (stereo not drawn) : 78.5
CCOc1ccc(NC(=O)C2CC(=O)N(C(C)C)C2)cc1 (stereo not drawn) : 103
COC(=O)Nc1ccc(C)cc1NC(=O)OC : 86.5

Summary for this compound, CCCc1cc(=O)n2[nH]c(-c3ccc(Br)cc3)cc2n1 : viability is 90.5

Summary for this compound, CCOc1ccccc1N(C(=O)Cn1nnnc1-c1ccc(C)o1)C(CC)C(=O)NC(C)(C)C (stereo not drawn) : viability is 88.5

Summary for this compound, CCc1nnc(NC(=O)c2ccc(COc3ccc(C)cc3)o2)s1 : viability is 104

Summary for this compound, COC(=O)c1ccccc1S(=O)(=O)NC(=O)c1ccccc1 : viability is 107

Summary for this compound, CN(C)S(=O)(=O)N1CCN(c2cccc(Cl)c2)CC1 : viability is 112

Summary for this compound, COC(=O)C1C(=O)c2c([nH]c(C(=O)OCCOC(C)C)c2C)CC1C (stereo not drawn) : viability is 100

Summary for this compound, Cn1cc(Br)c(C(=O)NC2CCCCC2)n1 : viability is 102

Summary for this compound, O=C(CSc1nc2[nH]ncc2c(=O)n1-c1ccccc1Br)NCc1ccco1 : viability is 100

Summary for this compound, O=C(NCc1ccc2c(c1)OCO2)c1cc2n(n1)C(C(F)(F)F)CC(c1ccc3c(c1)OCO3)N2 (stereo not drawn) : viability is 98

Summary for this compound, O=C(COc1ncnc2ccccc12)NCc1ccc2c(c1)OCO2 : viability is 100

Summary for this compound, N#CC1(c2ccccc2)CCC(=NO)CC1 (stereo not drawn) : viability is 106

Summary for this compound, CCCCCc1c(C)nc(Nc2nc(C)c3cc(OC)ccc3n2)[nH]c1=O : viability is 92.5

Summary for this compound, COC(=O)c1onc(C(=O)c2ccccc2)c1C(=O)OC : viability is 104

Summary for this compound, COC(=O)C(NC(C)=O)(Nc1ccccn1)C(F)(F)F (stereo not drawn) : viability is 98

Summary for this compound, Cc1ccc2[nH]c(=O)c(CN(Cc3ccc4c(c3)OCO4)Cc3nnnn3Cc3ccco3)cc2c1 : viability is 102

Summary for this compound, O=C1CC(c2ccc(Cl)cc2)n2nc(N3C(=O)c4ccccc4C3=O)nc2N1 (stereo not drawn) : viability is 106

Summary for this compound, C=C(Cl)COC(=O)[C@H]1C2C=CC(C2)C1C(=O)O (stereo partly drawn) : viability is 99.5

Summary for this compound, COc1ccc(OC)c(C(=O)COC(=O)c2cc(C)oc2C)c1 : viability is 112

====

experiment: growth suppression of yeast trafficking mutant, preliminary HTS, modulators of trafficking downstream of Golgi apparatus project, 1536-format plate, OD 615 nm (AID 637); settings: yeast transport mutant growth, absorbance 615 nm, 18 h; stronger effect = higher value
Readout Label: inhibition (%)
Answer format: numeric, % implied, no suffix.

Examples from the recorded data:
Cc1cc(C)nc(N2CCC(C(=O)NCc3cccc(C(F)(F)F)c3)CC2)n1 : -2.33
CCN1C(=O)NC(c2cc(Br)ccc2OC)C(C(=O)OC)=C1C (stereo unspecified) : -8.1
COc1cc(NS(=O)(=O)N2CCCC2)cc(OC)c1OC : -2.95
Cc1ccc(S(=O)(=O)Nc2cc(C(=O)O)ccc2N2CCCCC2)cc1 : 6.07
c1ccc(CN2C3=NCCCN3c3ccccc32)cc1 : -3.65

Then this molecule:
Summary for this molecule, CCN(CC)S(=O)(=O)c1ccc(S(=O)(=O)N(Cc2ccccn2)Cc2ccco2)cc1 : inhibition is 3.02

====

experiment: growth suppression of yeast trafficking mutant, preliminary HTS, modulators of trafficking downstream of Golgi apparatus project, 1536-format plate, OD 615 nm (AID 637); settings: yeast transport mutant growth, absorbance 615 nm, 18 h; stronger effect = higher value
The source made the active and inactive calls. No stated cut-off is given here; in the data, active means inhibition above about 30%; inactive means the rest.
inhibition for assorted compounds

O=C(c1ccccc1F)N1CCN(Cc2cccc(Cl)c2)CC1 : -2.86% (inactive)
Cc1cc(C)c(C#N)c(SCc2[nH]nc3c2C(c2ccccc2)C(C#N)=C(N)O3)n1 (stereo unspecified) : -4.03% (inactive)
CCOc1ccccc1NC(=O)CCN1CCN(S(=O)(=O)c2ccc(Br)cc2)CC1 : 1.13% (inactive)

Summary for this compound, CCn1c(SCC(=O)Nc2nc(C)cs2)nnc1-c1ccco1 : inhibition is -2% (inactive)

Summary for this compound, CN(C)C(=O)N1CCC(C(=O)NC2CCCCCCC2)CC1 : inhibition is 7% (inactive)

Summary for this compound, CCOC(=O)C1C(=O)N(C(=O)c2ccc(OC)cc2)CC1c1ccccc1 (stereo unspecified) : inhibition is -5.41% (inactive)

====

test: growth suppression of yeast trafficking mutant, preliminary HTS, modulators of trafficking downstream of Golgi apparatus project, 1536-format plate, OD 615 nm (AID 637); settings: yeast transport mutant growth, absorbance 615 nm, 18 h; stronger effect = higher value
Readout Label: inhibition (%)
Answer format: numeric, % implied, no suffix.

Examples from the recorded data:
Clc1cccc(Nc2c3c(nc4ncnn24)CCC3)c1 : 9.84
Cc1onc(-c2ccccc2)c1C(=O)Nc1ccnn1C1CCCCC1 : -2.95
O=C(CN1C(=O)CSC1=O)N1CCc2ccccc2C1 : -3.5
Cc1[nH]n2c(=O)cc(Cc3ccccc3)nc2c1C#N : -1.45
COC(=O)c1cccc(NC(=O)Cc2coc3cc(OC)ccc23)c1 : -6.19

Summary for this molecule, COC(=O)c1ccccc1S(=O)(=O)N(CCCO)Cc1cc2c(C)ccc(C)c2[nH]c1=O : inhibition is -5.25

Summary for this molecule, O=C(Nc1ccc(OC(=O)c2ccco2)cc1)c1ccco1 : inhibition is -10.5
